MIC reference
test system: Mycobacterium tuberculosis; assay: Antituberculosis activity against Mycobacterium tuberculosis H37Rv F420 mutant after 2 weeks; format: functional
Provide the reading as a plain figure in µM.

# chemical structure, recorded endpoint, observed measurement
records = [
    ("O=[N+]([O-])c1nc2n(c1Cl)C[C@H](OCc1ccc(OC(F)(F)F)cc1)CO2", "MIC", 25),
]

Let us examine a further case.
Which value of MIC has been reported for O=[N+]([O-])c1nc2n(c1Br)C[C@H](OCc1ccc(OC(F)(F)F)cc1)CO2 in the records?
25

###

system: Mycobacterium tuberculosis; experiment: Antituberculosis activity against Mycobacterium tuberculosis H37Rv F420 mutant after 2 weeks; format: functional
MIC reference

As a guide, the following entries are already answered.
# chemical structure, MIC
measured = [
    ("O=[N+]([O-])c1cn2c(n1)OC[C@@H](OCc1ccc(OC(F)(F)F)cc1)C2", ">100 µM"),
    ("Nc1c([N+](=O)[O-])nc2n1C[C@H](OCc1ccc(OC(F)(F)F)cc1)CO2", ">100 µM"),
]

Let us examine a further case.
Which value of MIC has been reported for N#Cc1c([N+](=O)[O-])nc2n1C[C@H](OCc1ccc(OC(F)(F)F)cc1)CO2 in the records?
>100 µM
